Data origin, for the record: the FLAb antibody collection (doi:10.7554/elife.23156)

B1: scFv; the commonest letter at each place (parent)
chain 1: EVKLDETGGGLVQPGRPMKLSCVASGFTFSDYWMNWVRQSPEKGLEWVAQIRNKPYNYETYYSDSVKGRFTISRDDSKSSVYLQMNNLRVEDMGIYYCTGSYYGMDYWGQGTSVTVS
chain 2: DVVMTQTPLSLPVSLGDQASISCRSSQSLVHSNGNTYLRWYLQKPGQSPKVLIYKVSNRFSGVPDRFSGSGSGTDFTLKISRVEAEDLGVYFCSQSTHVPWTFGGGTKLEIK

variants of: B1; test: yeast surface expression (ratio to wild type); higher = more expressed; conditions: format: scFv 4-4-20, heavy + light

variant-identifier	yeast surface expression
chain 1 S101W M105I	0.442
chain 1 M105A G109A	0.685
chain 1 S101D	0.888
chain 1 N35P	0.672
chain 1 Y102H G104F	0.598
chain 1 S30Q V37E	0.892
chain 1 W33M V37P	0.458
chain 1 D31T V37S	0.269
chain 1 D31N V37I	0.855
chain 1 S101R D106T	0.466
chain 1 S101F W108S G109S	0.242
chain 1 W36Y V37I	0.75
chain 1 F29Q Y32L	0.881
chain 1 Y102R G109L	0.279
chain 1 G104D W108Q	0.249
chain 1 S101D M105T	0.799
chain 1 T28Y D31W V37T	0.808
chain 1 Y107N G109K	0.306
chain 1 G100Y G109L	0.306
chain 1 G104T D106C Y107Q	0.31
chain 1 D31S	0.902
chain 1 Y102F G109N	0.27
